Reference source for all entries: the supplement of paper PMC10307832

Test system: NCI-H1650
experiment_summary: relative viability (nuclei count vs DMSO), 5 days (fraction); higher = more cells survive
details: first compound 0.02 µM
quantity: relative viability
Give the figure only, with no unit attached.

Query block: Provide the documented relative viability with NCI-H1650 as the system for CN1CCN(CCOc2cc(OC3CCOCC3)c3c(Nc4c(Cl)ccc5c4OCO5)ncnc3c2)CC1 [Saracatinib] + CS(=O)(=O)CCNCc1ccc(-c2ccc3ncnc(Nc4ccc(OCc5cccc(F)c5)c(Cl)c4)c3c2)o1 [Lapatinib] (partner 2 µM)
Result block: 0.779

---

Quick list: relative viability per entry.
System: A-427
experiment_summary: relative viability (nuclei count vs DMSO), 5 days (fraction); higher = more cells survive
details: first compound 6.325 µM
Quick one: just the number, no unit, thanks!

# example entries with known answers
• Cc1csc(=NC2CCCCC2)n1/N=C/c1ccc(O)c(O)c1O [MIM1] + CC1(C)CCC(c2ccc(Cl)cc2)=C(CN2CCN(c3ccc(C(=O)NS(=O)(=O)c4ccc(N[C@H](CCN5CCOCC5)CSc5ccccc5)c(S(=O)(=O)C(F)(F)F)c4)cc3)CC2)C1 [Navitoclax] (partner 0.5 µM) = 0.986
• Cc1csc(=NC2CCCCC2)n1/N=C/c1ccc(O)c(O)c1O [MIM1] + Cc1cc(Nc2cc(N3CCN(C)CC3)nc(Sc3ccc(NC(=O)C4CC4)cc3)n2)n[nH]1 [Tozasertib] (partner 0.1 µM) = 0.249
• Cc1csc(=NC2CCCCC2)n1/N=C/c1ccc(O)c(O)c1O [MIM1] + CS(=O)(=O)N1CCN(Cc2cc3nc(-c4cccc5[nH]ncc45)nc(N4CCOCC4)c3s2)CC1 [Pictilisib] (partner 1 µM) = 0.743

Query block: I would be grateful if you could share the reported relative viability for Cc1csc(=NC2CCCCC2)n1/N=C/c1ccc(O)c(O)c1O [MIM1] + Nc1ncn([C@H]2C[C@H](O)[C@@H](CO)O2)c(=O)n1 [Decitabine] (partner 2 µM) .
Result block: 0.541

Query block: Look up relative viability for this compound: Cc1csc(=NC2CCCCC2)n1/N=C/c1ccc(O)c(O)c1O [MIM1] + O=C(CCCCCCC(=O)Nc1ccccc1)NO [Vorinostat] (partner 1 µM)
Result block: 0.745

Query block: Any idea what its relative viability is? The compound is Cc1csc(=NC2CCCCC2)n1/N=C/c1ccc(O)c(O)c1O [MIM1] + Cc1nc(NC(=O)N2CCC[C@H]2C(N)=O)sc1-c1ccnc(C(C)(C)C(F)(F)F)c1 [Alpelisib] (partner 2 µM)
Result block: 1.06

Query block: Data request, read-out relative viability, for Cc1csc(=NC2CCCCC2)n1/N=C/c1ccc(O)c(O)c1O [MIM1] + CCNC(=O)c1noc(-c2cc(C(C)C)c(O)cc2O)c1-c1ccc(CN2CCOCC2)cc1 [Luminespib] (partner 0.01 µM)
Result block: 0.747

---

System: SW 1573
experiment_summary: relative viability (nuclei count vs DMSO), 5 days (fraction); higher = more cells survive
details: first compound 6.325 µM
quantity: relative viability
Hey, just send me the number, nothing else.

Take a look at these entries with their results.
* Cc1csc(=NC2CCCCC2)n1/N=C/c1ccc(O)c(O)c1O [MIM1] + CS(=O)(=O)CCNCc1ccc(-c2ccc3ncnc(Nc4ccc(OCc5cccc(F)c5)c(Cl)c4)c3c2)o1 [Lapatinib] (partner 2 µM) | 0.993
* Cc1csc(=NC2CCCCC2)n1/N=C/c1ccc(O)c(O)c1O [MIM1] + Cc1nc(NC(=O)N2CCC[C@H]2C(N)=O)sc1-c1ccnc(C(C)(C)C(F)(F)F)c1 [Alpelisib] (partner 2 µM) | 0.639
* Cc1csc(=NC2CCCCC2)n1/N=C/c1ccc(O)c(O)c1O [MIM1] + N=C(N)NC(=N)NCCc1ccccc1 [Phenformin] (partner 250 µM) | 0.25

Query block: Given Cc1csc(=NC2CCCCC2)n1/N=C/c1ccc(O)c(O)c1O [MIM1] + CC(=O)Nc1cccc(-n2c(=O)n(C3CC3)c(=O)c3c(Nc4ccc(I)cc4F)n(C)c(=O)c(C)c32)c1 [Trametinib] (partner 0.02 µM) , state its recorded relative viability.
Result block: 0.361

---

Tested on: NCI-H460
experiment_summary: relative viability (nuclei count vs DMSO), 5 days (fraction); higher = more cells survive
details: first compound 2 µM
Field 'label' (enum: class 1 / class 0). Set to class 1 when relative viability is strictly under 0.3; else class 0.

# count of solved cases: 5
- CN1CCN(CCOc2cc(OC3CCOCC3)c3c(Nc4c(Cl)ccc5c4OCO5)ncnc3c2)CC1 [Saracatinib] + C[C@]1(O)C[C@@H](c2nc(-c3ccc4ccc(-c5ccccc5)nc4c3)c3c(N)nccn32)C1 [Linsitinib] (partner 1 µM): class 1
- CN1CCN(CCOc2cc(OC3CCOCC3)c3c(Nc4c(Cl)ccc5c4OCO5)ncnc3c2)CC1 [Saracatinib] + CS(=O)(=O)N1CCN(Cc2cc3nc(-c4cccc5[nH]ncc45)nc(N4CCOCC4)c3s2)CC1 [Pictilisib] (partner 1 µM): class 1
- Cc1csc(=NC2CCCCC2)n1/N=C/c1ccc(O)c(O)c1O [MIM1] + C[C@@H](Oc1cc(-c2cnn(C3CCNCC3)c2)cnc1N)c1c(Cl)ccc(F)c1Cl [Crizotinib] (partner 1 µM): class 0
- CN1CCN(CCOc2cc(OC3CCOCC3)c3c(Nc4c(Cl)ccc5c4OCO5)ncnc3c2)CC1 [Saracatinib] + COc1cccc2cc(-c3nc([C@H]4CC[C@H](C(=O)O)CC4)n4ncnc(N)c34)[nH]c12 [OSI-027] (partner 0.5 µM): class 0
- CN1CCN(CCOc2cc(OC3CCOCC3)c3c(Nc4c(Cl)ccc5c4OCO5)ncnc3c2)CC1 [Saracatinib] + CC(=O)c1c(C)c2cnc(Nc3ccc(N4CCNCC4)cn3)nc2n(C2CCCC2)c1=O [Palbociclib] (partner 0.5 µM): class 1

Here is another compound to look at.
Query block: Answer whether the compound Cc1csc(=NC2CCCCC2)n1/N=C/c1ccc(O)c(O)c1O [MIM1] + CC(C)C[C@H](NC(=O)[C@H](Cc1ccccc1)NC(=O)c1cnccn1)B(O)O [Bortezomib] (partner 0.002 µM) has relative viability strictly less than 0.3
Result block: class 0

---

Tested on: CAL-12T
experiment_summary: relative viability (nuclei count vs DMSO), 5 days (fraction); higher = more cells survive
details: first compound 0.2 µM
quantity: relative viability
Hey, just send me the number, nothing else.

Query block: Look at this molecule and give its reported relative viability. Cc1csc(=NC2CCCCC2)n1/N=C/c1ccc(O)c(O)c1O [MIM1] + COc1cccc2cc(-c3nc([C@H]4CC[C@H](C(=O)O)CC4)n4ncnc(N)c34)[nH]c12 [OSI-027] (partner 0.5 µM)
Result block: 0.607

Query block: Look at this molecule and give its reported relative viability. Cc1csc(=NC2CCCCC2)n1/N=C/c1ccc(O)c(O)c1O [MIM1] + Cc1nc(Nc2ncc(C(=O)Nc3c(C)cccc3Cl)s2)cc(N2CCN(CCO)CC2)n1 [Dasatinib] (partner 0.075 µM)
Result block: 0.258

Query block: Given Cc1csc(=NC2CCCCC2)n1/N=C/c1ccc(O)c(O)c1O [MIM1] + CC(=O)Nc1cccc(-n2c(=O)n(C3CC3)c(=O)c3c(Nc4ccc(I)cc4F)n(C)c(=O)c(C)c32)c1 [Trametinib] (partner 0.02 µM) , state its recorded relative viability.
Result block: 0.406

Query block: Would you mind telling me what relative viability value was observed for Cc1csc(=NC2CCCCC2)n1/N=C/c1ccc(O)c(O)c1O [MIM1] + COc1cc2c(Oc3ccc(NC(=O)C4(C(=O)Nc5ccc(F)cc5)CC4)cc3F)ccnc2cc1OCCCN1CCOCC1 [Foretinib] (partner 0.25 µM) ?
Result block: 1.03

---

Tested on: NCI-H1755
experiment_summary: relative viability (nuclei count vs DMSO), 5 days (fraction); higher = more cells survive
details: first compound 0.2 µM
quantity: relative viability

• Cc1csc(=NC2CCCCC2)n1/N=C/c1ccc(O)c(O)c1O [MIM1] + CS(=O)(=O)N1CCN(Cc2cc3nc(-c4cccc5[nH]ncc45)nc(N4CCOCC4)c3s2)CC1 [Pictilisib] (partner 1 µM) = 0.465
• Cc1csc(=NC2CCCCC2)n1/N=C/c1ccc(O)c(O)c1O [MIM1] + COc1cccc2cc(-c3nc([C@H]4CC[C@H](C(=O)O)CC4)n4ncnc(N)c34)[nH]c12 [OSI-027] (partner 0.5 µM) = 0.833
• CN1CCN(CCOc2cc(OC3CCOCC3)c3c(Nc4c(Cl)ccc5c4OCO5)ncnc3c2)CC1 [Saracatinib] + CC(=O)Nc1cccc(-n2c(=O)n(C3CC3)c(=O)c3c(Nc4ccc(I)cc4F)n(C)c(=O)c(C)c32)c1 [Trametinib] (partner 0.02 µM) = 0.714
• CCNC(=O)c1noc(-c2cc(C(C)C)c(O)cc2O)c1-c1ccc(CN2CCOCC2)cc1 [Luminespib] + NC(=O)Nc1cc(-c2cccc(F)c2)sc1C(=O)N[C@H]1CCCNC1 [AZD7762] (partner 0.2 µM) = 0.161
• CCNC(=O)c1noc(-c2cc(C(C)C)c(O)cc2O)c1-c1ccc(CN2CCOCC2)cc1 [Luminespib] + C[C@@H](Oc1cc(-c2cnn(C3CCNCC3)c2)cnc1N)c1c(Cl)ccc(F)c1Cl [Crizotinib] (partner 1 µM) = 0.315

Query block: Which relative viability is reported for this compound? Cc1csc(=NC2CCCCC2)n1/N=C/c1ccc(O)c(O)c1O [MIM1] + Nc1nc2[nH]cc(CCc3ccc(C(=O)N[C@@H](CCC(=O)O)C(=O)O)cc3)c2c(=O)[nH]1 [Pemetrexed] (partner 0.2 µM)
Result block: 0.377

Query block: Recorded relative viability of CN1CCN(CCOc2cc(OC3CCOCC3)c3c(Nc4c(Cl)ccc5c4OCO5)ncnc3c2)CC1 [Saracatinib] + Cc1nc(Nc2ncc(C(=O)Nc3c(C)cccc3Cl)s2)cc(N2CCN(CCO)CC2)n1 [Dasatinib] (partner 0.075 µM) , please.
Result block: 0.318

Query block: I would be grateful if you could share the reported relative viability for CCNC(=O)c1noc(-c2cc(C(C)C)c(O)cc2O)c1-c1ccc(CN2CCOCC2)cc1 [Luminespib] + Nc1ncn([C@H]2C[C@H](O)[C@@H](CO)O2)c(=O)n1 [Decitabine] (partner 2 µM) .
Result block: 0.649

Query block: Can you look up the measured relative viability of CN1CCN(CCOc2cc(OC3CCOCC3)c3c(Nc4c(Cl)ccc5c4OCO5)ncnc3c2)CC1 [Saracatinib] + Cc1cc(Nc2cc(N3CCN(C)CC3)nc(Sc3ccc(NC(=O)C4CC4)cc3)n2)n[nH]1 [Tozasertib] (partner 0.1 µM) for me?
Result block: 0.528

Query block: So what does the record say about relative viability for Cc1csc(=NC2CCCCC2)n1/N=C/c1ccc(O)c(O)c1O [MIM1] + Cc1cc(Nc2cc(N3CCN(C)CC3)nc(Sc3ccc(NC(=O)C4CC4)cc3)n2)n[nH]1 [Tozasertib] (partner 0.1 µM) ?
Result block: 0.606

Query block: What measured relative viability goes with CN1CCN(CCOc2cc(OC3CCOCC3)c3c(Nc4c(Cl)ccc5c4OCO5)ncnc3c2)CC1 [Saracatinib] + CS(=O)(=O)CCNCc1ccc(-c2ccc3ncnc(Nc4ccc(OCc5cccc(F)c5)c(Cl)c4)c3c2)o1 [Lapatinib] (partner 2 µM) ?
Result block: 0.816

Query block: Reported relative viability, compound Cc1csc(=NC2CCCCC2)n1/N=C/c1ccc(O)c(O)c1O [MIM1] + CC1(C)CCC(c2ccc(Cl)cc2)=C(CN2CCN(c3ccc(C(=O)NS(=O)(=O)c4ccc(N[C@H](CCN5CCOCC5)CSc5ccccc5)c(S(=O)(=O)C(F)(F)F)c4)cc3)CC2)C1 [Navitoclax] (partner 0.5 µM) : ____
Result block: 1.01

Query block: Which relative viability value is on record for CN1CCN(CCOc2cc(OC3CCOCC3)c3c(Nc4c(Cl)ccc5c4OCO5)ncnc3c2)CC1 [Saracatinib] + C[C@@H](Oc1cc(-c2cnn(C3CCNCC3)c2)cnc1N)c1c(Cl)ccc(F)c1Cl [Crizotinib] (partner 1 µM) ?
Result block: 0.536

Query block: Bench note: what relative viability did Cc1csc(=NC2CCCCC2)n1/N=C/c1ccc(O)c(O)c1O [MIM1] + CCNC(=O)c1noc(-c2cc(C(C)C)c(O)cc2O)c1-c1ccc(CN2CCOCC2)cc1 [Luminespib] (partner 0.01 µM) show?
Result block: 0.455

Query block: Which relative viability value belongs to CN1CCN(CCOc2cc(OC3CCOCC3)c3c(Nc4c(Cl)ccc5c4OCO5)ncnc3c2)CC1 [Saracatinib] + CCNC(=O)c1noc(-c2cc(C(C)C)c(O)cc2O)c1-c1ccc(CN2CCOCC2)cc1 [Luminespib] (partner 0.01 µM) ?
Result block: 0.329
